Please respond with reported Kd for every item in the list.
Target: T1, EsCas13d, nuclease-dead (Eubacterium siraeum, UniProt B0MS50, R295A;H300A;R849A;H854A)
T1 sequence: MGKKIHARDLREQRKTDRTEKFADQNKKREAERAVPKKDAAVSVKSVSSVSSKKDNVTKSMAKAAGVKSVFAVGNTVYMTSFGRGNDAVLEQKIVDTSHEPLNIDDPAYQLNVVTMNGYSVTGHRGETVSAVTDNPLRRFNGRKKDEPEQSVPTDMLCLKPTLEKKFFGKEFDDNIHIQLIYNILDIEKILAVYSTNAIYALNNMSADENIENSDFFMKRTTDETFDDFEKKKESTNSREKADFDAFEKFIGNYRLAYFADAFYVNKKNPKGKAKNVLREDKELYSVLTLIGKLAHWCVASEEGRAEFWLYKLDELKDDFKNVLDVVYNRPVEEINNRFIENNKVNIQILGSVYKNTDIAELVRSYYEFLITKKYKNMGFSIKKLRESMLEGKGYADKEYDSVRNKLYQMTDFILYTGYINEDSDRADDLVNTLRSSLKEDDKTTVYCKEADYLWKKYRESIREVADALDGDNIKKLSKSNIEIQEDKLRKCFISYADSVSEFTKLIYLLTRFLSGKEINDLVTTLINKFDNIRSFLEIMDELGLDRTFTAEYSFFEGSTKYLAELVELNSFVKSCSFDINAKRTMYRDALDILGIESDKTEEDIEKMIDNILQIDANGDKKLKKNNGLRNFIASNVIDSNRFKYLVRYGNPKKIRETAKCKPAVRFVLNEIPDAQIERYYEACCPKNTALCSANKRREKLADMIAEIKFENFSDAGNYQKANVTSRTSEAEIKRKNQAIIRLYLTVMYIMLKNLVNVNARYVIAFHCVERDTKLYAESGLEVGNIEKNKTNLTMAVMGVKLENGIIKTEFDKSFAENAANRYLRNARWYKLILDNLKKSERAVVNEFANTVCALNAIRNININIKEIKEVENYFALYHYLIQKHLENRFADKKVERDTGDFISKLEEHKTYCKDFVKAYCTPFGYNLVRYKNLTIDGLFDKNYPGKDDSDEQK
Assay: crRNA (strand 1, pre-loaded); Mg2+; 40 mM Tris-HCl pH 7.5, 150 mM NaCl, 6 mM MgCl2, 1 mM DTT, 0.1% Tween-20, 0.2 mg/ml BSA; 25 C; 10 min per concentration, then washed
Settings: tags: His6-TwinStrep-SUMO cleaved; N-terminal SNAP kept (SNAP-Surface 488); label: 3' end held by stalled T7 RNA polymerase

Given target 1 MT 5'PFS GCG 3'PFS CCG (mixed) RNA 1: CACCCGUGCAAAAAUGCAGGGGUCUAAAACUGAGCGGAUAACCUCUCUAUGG RNA 2: GGGAAUGGAUCCACAUCUACGAAUUCGCGCCAUAGAGAGGUUAUCCGCUCACCGAGAUCGGAAGAGCACACGU , state its recorded Kd.
12.4 nM

Given target 1 insA 3' of 10,insA 3' of 3 (mixed) RNA 1: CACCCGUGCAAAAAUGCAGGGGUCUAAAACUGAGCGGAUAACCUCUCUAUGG RNA 2: GGGAAUGGAUCCACAUCUACGAAUUCGUACCAUAGAGAGGUUAAUCCGCUACACCGAGAUCGGAAGAGCACACGU , state its recorded Kd.
8.56 nM

Given target 1 insU 3' of 9,insC 3' of 3 (mixed) RNA 1: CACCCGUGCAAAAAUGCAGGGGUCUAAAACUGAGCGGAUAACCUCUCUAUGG RNA 2: GGGAAUGGAUCCACAUCUACGAAUUCGUACCAUAGAGAGGUUAUUCCGCUCCACCGAGAUCGGAAGAGCACACGU , state its recorded Kd.
16.3 nM

Given target 2 MT 5'PFS CGG 3'PFS CCC (mixed) RNA 1: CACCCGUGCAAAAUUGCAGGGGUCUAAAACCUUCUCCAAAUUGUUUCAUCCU RNA 2: GGGAAUGGAUCCACAUCUACGAAUUCCGGAGGAUGAAACAAUUUGGAGAAGCCCAGAUCGGAAGAGCACACGU , state its recorded Kd.
~19 nM
